assay: in vivo; settings: male, Sprague-Dawley, rat, iv, 8 mg/kg

[
  {
    "Compound smiles": "Nc1ccn([C@@H]2O[C@H](CO)[C@@H](O)C2(F)F)c(=O)n1",
    "MRT, h": 3.48
  }
]

====

test: in vivo; settings: male, Sprague-Dawley, rat, iv, 8 mg/kg

[
  {
    "Compound smiles": "Nc1ccn([C@@H]2O[C@H](CO)[C@@H](O)C2(F)F)c(=O)n1",
    "Tmax, min": 1
  }
]

====

test: in vivo; conditions: male, Sprague-Dawley, rat, iv, Gemcitabine blood concentration, 30 minutes

[
  {
    "Compound": "Nc1ccn([C@@H]2O[C@H](CO)[C@@H](O)C2(F)F)c(=O)n1 [Gemcitabine, 2,2′-difluorodeoxycytidine]",
    "Readout units": "ng/mL",
    "concentration at 30 min": 5600
  }
]

The origin of these recorded values is patent US12448624B2.
